- Study target: GlcNAc(b1-3)Gal(b1-4)GlcNAc(b1-3)Gal(b1-4)GlcNAc(b1-3)Gal(b1-4)GlcNAc(b1-2)[GlcNAc(b1-3)Gal(b1-4)GlcNAc(b1-3)Gal(b1-4)GlcNAc(b1-3)Gal(b1-4)GlcNAc(b1-6)]Man(a1-6)[GlcNAc(b1-3)Gal(b1-4)GlcNAc(b1-3)Gal(b1-4)GlcNAc(b1-3)Gal(b1-4)GlcNAc(b1-2)Man(a1-3)]Man(b1-4)GlcNAc(b1-4)[Fuc(a1-6)]GlcNAc
- Measurement protocol: glycan array binding signal (z-score within array); higher = stronger binding
- Assay conditions: glycan notation: IUPAC condensed, linker removed
The full list was thinned out, with the strongest signals kept by preference.
Give measured glycan array binding signal (z-score) for each item. Keep answers brief.
Answer with a bare number; do not write a unit.

What glycan array binding signal (z-score) value was documented for this binder, Na-CTL-1 (Necator americanus) (protein) MQRSFLLLLVVLAGAWAVNTTIPLKLMGGFTPMKYQCVGRVSDIWADVLFLIESSDMITKSGFRQVIAFITATTKKMTIGQDEKQTRVGFITYGEEAKLIYDLDHWRSTEKLSDLVQKIPYVKSSGTNIAAAIALANKVFNSPTHRPNVPKVMVIVANGLKKGSQNPIPVATAFKDFGGIIITIEYTQYDNIQVPILKKIASEGYNIRSNDEDFSVRTLTNMLLQANCFCPDHYVPFRVNNPEFGCFVTAKIPSMWRDAAEMCRAVEEGKLVKVENEEKAAFIMKLVGPKKEAWIGLRYYGNKFQWTDGTKLNADDFNLWPEDIKELNGPHCVSMYQDQKDKKYYWRAGKCLEDMRYVCEVQPCSASNYCSEPVFMYRQKHRALLPAPPPPPN ?
1.69

What glycan array binding signal (z-score) value was documented for this binder, HBHA-Rv (Mycobacterium tuberculosum), P0A5P6 (protein) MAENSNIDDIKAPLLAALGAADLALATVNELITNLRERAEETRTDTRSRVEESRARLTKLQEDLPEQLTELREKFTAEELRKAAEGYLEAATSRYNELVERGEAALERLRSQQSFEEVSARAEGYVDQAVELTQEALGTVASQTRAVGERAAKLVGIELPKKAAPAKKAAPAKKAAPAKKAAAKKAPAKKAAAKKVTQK ?
-0.347
